# TARGET SYSTEM: OR52D1 (Homo sapiens) (UniProt Q9H346)
# Sequence (whole entry): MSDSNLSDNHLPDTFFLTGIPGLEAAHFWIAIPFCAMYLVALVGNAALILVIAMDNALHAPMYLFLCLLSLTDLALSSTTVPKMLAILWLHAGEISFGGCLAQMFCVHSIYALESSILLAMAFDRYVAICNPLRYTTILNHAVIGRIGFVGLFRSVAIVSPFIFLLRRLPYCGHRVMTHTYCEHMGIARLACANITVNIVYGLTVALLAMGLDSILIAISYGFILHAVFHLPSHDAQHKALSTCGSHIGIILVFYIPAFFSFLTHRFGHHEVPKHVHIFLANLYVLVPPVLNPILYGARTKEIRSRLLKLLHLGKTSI
# CONDITION LABEL: stereoisomer not certain
ASSAY METRIC: odorant receptor agonist call

CCCC(=O)OCC; active
CCCCCC1CCCC(=O)O1 (stereo not drawn); active
COc1nccnc1CC(C)C; active
CC(C)=CCCC(C)=CC#N; active
CCCCCCC(C)=O; inactive

The reported odorant receptor agonist call of the compound `CCCCCCCCCCC(C)=O` was inactive

In plain terms, CC(CO)CS (stereo not drawn) has a documented odorant receptor agonist call of inactive

Just so you know, measured odorant receptor agonist call for `CCCCCC(=O)OC` came out at inactive

Entry CC12CCC(CC1=O)C2(C)C (stereo not drawn) , odorant receptor agonist call reported as inactive

The compound listed as CC1=C(O)C(=O)C(C)O1 (stereo not drawn) shows odorant receptor agonist call equal to inactive

# odorant receptor agonist call (compound: CCCCC(CC)CO (stereo not drawn) ) is inactive

###

# TARGET SYSTEM: UniProt Q8VGH1
# Sequence (Q8VGH1 as listed by the source): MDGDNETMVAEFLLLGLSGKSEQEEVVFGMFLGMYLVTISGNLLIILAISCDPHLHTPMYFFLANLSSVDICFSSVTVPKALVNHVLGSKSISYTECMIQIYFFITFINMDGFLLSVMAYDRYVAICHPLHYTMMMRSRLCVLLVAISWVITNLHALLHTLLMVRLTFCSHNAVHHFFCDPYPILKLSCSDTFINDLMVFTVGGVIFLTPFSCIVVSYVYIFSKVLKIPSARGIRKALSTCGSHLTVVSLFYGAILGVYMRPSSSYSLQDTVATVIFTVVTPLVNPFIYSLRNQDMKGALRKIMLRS
# CONDITION LABEL: stereoisomer not certain
ASSAY METRIC: odorant receptor agonist call

O=C(c1ccccc1)c1ccccc1; inactive
CC(=O)OCC=C(C)C; inactive
CCCCCCCCCO; inactive
CCCCC(=O)CC; inactive
CCC(=O)C(=O)CC; inactive
CCC(C(=O)O)c1ccccc1 (centres undefined); inactive
CCCCCCCCCCO; inactive
CCCCCCCC(=O)[O-].[H+]; inactive

Let us move to another entry and its odorant receptor agonist call.
The recorded odorant receptor agonist call for entry `CC(C)=CCCC(C)=CCO` equals inactive

###

# TARGET SYSTEM: OR5K1 (Homo sapiens) (UniProt Q8NHB7)
# Sequence (whole entry): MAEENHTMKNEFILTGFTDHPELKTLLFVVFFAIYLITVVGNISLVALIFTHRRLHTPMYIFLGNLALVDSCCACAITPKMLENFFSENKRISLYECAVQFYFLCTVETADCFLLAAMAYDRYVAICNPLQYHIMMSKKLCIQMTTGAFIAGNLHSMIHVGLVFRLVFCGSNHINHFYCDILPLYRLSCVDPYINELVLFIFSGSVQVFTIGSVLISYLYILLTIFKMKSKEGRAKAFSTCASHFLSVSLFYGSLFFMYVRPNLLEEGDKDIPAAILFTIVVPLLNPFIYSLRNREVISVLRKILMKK
# CONDITION LABEL: stereoisomer not certain
Pick from active, inactive when you respond.

Use these answered entries as a reference point.
CCC=CCCC=O; inactive
CCCC1CCCC(=O)O1 (centres undefined); inactive
CCCCCCO; inactive
CCCCCCCC(=O)OCC; inactive

Any idea what this test logged for `CCCCCCOC(C)=O` ?
inactive

Check the results log: what was the call for `C=Cc1ccc(O)c(OC)c1` ?
inactive

Hey, what did the test say about `Cc1c[nH]c2ccccc12` ?
inactive

Which result was noted for this compound in the test: `CCCCCCC=CCCC=O`
inactive

Please share the test call associated with `CCCCCCCC(C)=O` .
inactive
